Test system: LPS-induced IL-1β release in differentiated THP-1 cells
Experiment: LPS-mediated IL-1β release assay
Format: cell-based, human
Conditions: Homo sapiens, THP-1, 24-hour time point; 100 ng/ml LPS for 5 hours; read-out: IC50, inhibition of LPS-induced IL-1β secretion
parameter: pIC50
Schema: pIC50 number; meaning minus log10 of the concentration expressed in molar units.

| compound | reading |
| --- | --- |
| CCCC1O[C@@H]2C[C@H]3[C@@H]4C[C@H](F)C5=CC(=O)C=C[C@]5(C)[C@@]4(F)[C@@H](O)C[C@]3(C)[C@]2(C(=O)CN)O1 (mixture of isomers) | 9.07 |

Consider the additional compound presented here.
QUERY: What value of pIC50 has been reported for the following compound? C[C@@H]1C[C@H]2[C@@H]3CCC4=CC(=O)C=C[C@]4(C)[C@@]3(F)[C@@H](O)C[C@]2(C)[C@@]1(O)C(=O)CO [Dexamethasone, dexamethasone, reference compound]
RESULT: 9.38

---

Assay: Solubility in water of linker-payloads
Below, each entry is listed with its recorded solubility.
Give the quantity in µg/mL, number only.

| molecule | reading |
| --- | --- |
| CCCC1O[C@@H]2C[C@H]3[C@@H]4C[C@H](F)C5=CC(=O)C=C[C@]5(C)[C@@]4(F)[C@@H](O)C[C@]3(C)[C@]2(C(=O)CNC(=O)OCc2ccc(NC(=O)[C@H](CCCNC(N)=O)NC(=O)[C@@H](NC(=O)CCOCCOCCOCCOCCNC(=O)CCC(=O)N3Cc4ccccc4C#Cc4ccccc43)C(C)C)cc2)O1 (some centres unmarked) | 20 |

Read the next record carefully.
QUERY: Requested read-out: solubility. Entry: CCCC1O[C@@H]2C[C@H]3[C@@H]4C[C@H](F)C5=CC(=O)C=C[C@]5(C)[C@@]4(F)[C@@H](O)C[C@]3(C)C2(C(=O)CNC(=O)OCc2ccc(NC(=O)[C@H](CCCNC(N)=O)NC(=O)[C@@H](NC(=O)[C@@H](CCCCNC(=O)COC3CCCCCc4c3nnn4CC3OC4OC5C(CO)OC(OC6C(CO)OC(OC7C(CO)OC(OC8C(CO)OC(OC9C(CO)OC(OC3C(O)C4O)C(O)C9O)C(O)C8O)C(O)C7O)C(O)C6O)C(O)C5O)NC(=O)CCOCCOCCOCCOCCNC(=O)CCC(=O)N3Cc4ccccc4C#Cc4ccccc43)C(C)C)cc2)O1 (some centres unmarked)
RESULT: 26
